system: SARS-CoV-2 Omicron BA.2.75; assay: microbe, parasite or virus in culture; format: cell-based; conditions: Severe acute respiratory syndrome coronavirus 2, read-out: Against SARS-CoV-2 variants EC50, Omicron BA.2.75
Each entry below lists one item and its recorded pEC50 value.
The meaning of pEC50 here: minus log10 of the concentration in molar units.

# annotated cases, reported pEC50 shown
CC(C)(C)[C@H](NC(=O)C(F)(F)F)C(=O)N1C[C@H]2[C@@H]([C@H]1C(=O)N[C@@H](C[C@@H]1CCNC1=O)C(=O)c1nc3cc(F)ccc3s1)C2(C)C [TKB272] ... 8.22
Cn1cnc(Cn2c(=O)[nH]/c(=N\c3cc4cn(C)nc4cc3Cl)n(Cc3cc(F)c(F)cc3F)c2=O)n1 [Ensitrelvir, reference compound] ... 6.85
CC(C)(C)[C@H](NC(=O)C(F)(F)F)C(=O)N1C[C@H]2[C@@H]([C@H]1C(=O)N[C@@H](C[C@@H]1CCNC1=O)C(=O)c1nc3c(F)cccc3s1)C2(C)C [TKB245] ... 7.57

API: the following record is the query input.
Q: What value of measured pEC50 is listed for CC(C)(C)[C@H](NC(=O)C(F)(F)F)C(=O)N1C[C@H]2[C@@H]([C@H]1C(=O)N[C@H](C#N)C[C@@H]1CCNC1=O)C2(C)C [Nirmatrelvir, reference compound] ?
A: 6.52
